Test system: PC-12
Procedure Summary: Neuroprotective activity against corticosterone-induced cell injury in rat PC12 cells assessed as cell viability at 3 uM after 48 hrs by MTT assay (reference value: 55.6 +/- 0.87%)
Format: functional
Measurement Setup: PC-12, 48 h, read-out: Activity
Metric Name: viability at 3 µM (%)
Number in %, nothing else.

Query: Data request, read-out viability at 3 µM, for CC(C)=CCC[C@]1(C)[C@@H](CC=C(C)C)C[C@]23C[C@@H](C(C)(C)O)OC2=C(CC=C(C)C)C(=O)[C@@]1(C(=O)c1ccccc1)C3=O
Reply: 90.2

Query: Data request, read-out viability at 3 µM, for CC(C)=CCC[C@]1(C)[C@@H](CC=C(C)C)C[C@]2(C[C@H](O)C(C)(C)O)C(=O)C(C(=O)C(C)C)=C3O[C@H](C(C)(C)O)C[C@@]31C2=O
Reply: 76.5

Query: Data request, read-out viability at 3 µM, for CC(C)=CCC1=C2O[C@H](C(C)(C)O)CC[C@]3(C)[C@@H](CC=C(C)C)C[C@](C[C@H](O)C(C)(C)O)(C1=O)C(=O)[C@]23C(=O)c1ccccc1
Reply: 59.7

Query: Data request, read-out viability at 3 µM, for CC(C)=CCC[C@]1(C)[C@@H](CC=C(C)C)C[C@@]2(CC=C(C)C)C(=O)[C@]1(C(=O)c1ccccc1)C(=O)C1=C2O[C@@H](C(C)(C)O)C1
Reply: 72.9

Query: Data request, read-out viability at 3 µM, for CC(C)=CCC[C@]1(C)[C@@H](CC=C(C)C)C[C@]2(CC=C(C)C)C(=O)C(C(=O)c3ccccc3)=C3O[C@@H](C(C)(C)O)C[C@@]31C2=O
Reply: 77.7

Query: Data request, read-out viability at 3 µM, for CC(C)=CCC[C@]1(C)[C@H](CC=C(C)C)C[C@]2(CC=C(C)C)C(=O)C(C(=O)C(C)C)=C3O[C@@H](C(C)(C)O)C[C@@]31C2=O
Reply: 63.8
